The measured values listed here are drawn from patent US8299210.

biological target: T1, Pertussis toxin (PT) (Bordetella pertussis, UniProt P04977 35-269; P04978 28-226; P04979 29-227; P0A3R5 43-152; P04981 35-133); assay: 20 pmol sepharose-immobilized peptide with 100 pmol (500 nM) PT, bound PT quantified by gel, 1:1 ratio assumed
T1 construct: mature; also called purified PT; biotinylated PT
Where no end group is shown, it is not given here. The star is where a group is joined. Biotin = O=C1N[C@H]2[C@H](CS[C@H]2CCCCC(=O)*)N1; AEEA = NCCOCCOCC(=O)O
Provide the recorded Fraction of binding active peptide for the entries that follow.

Give Fraction of binding active peptide for {Biotin-AEEA}-SGCVKKDELCELAVDECCEPLECFQMGHGFKRCG (ends and bridges not checked, also called gurm 10n) [synthetic biotinylated peptide gurmarin 10 n (Seq # 194264-1)]
> 5%

Give Fraction of binding active peptide for {Biotin-AEEA}-SGCVKKDELCELAIDECCEPLECTKGDLGFRKCG (ends and bridges not checked, also called gurm 19n) [synthetic biotinylated peptide gurmarin 19 n (Seq # 194737-1)]
> 5%

Give Fraction of binding active peptide for {Biotin-AEEA}-SGCVKKDELCARWDLVCCEPLECIYTSELYATCG (cysteine pairing not given here, also called gurm 9n; gurmarin peptide 9) [synthetic biotinylated peptide gurmarin 9 n (Seq # 194259-1)]
> 12.5%

Give Fraction of binding active peptide for {Biotin-AEEA}-RSNVIPLNEVWYDTGWDRPHRSRLSIDDDA (also called pp26 peptide 9; pp26 clone 9) [synthetic biotinylated peptide pp26 9 n (Seq # 197588-1)]
> 50%

Give Fraction of binding active peptide for {Biotin-AEEA}-RSWRDTRKLHMRHYFPLAIDSYWDHTLRDA (also called pp26 peptide 15; pp26 clone 15) [synthetic biotinylated peptide pp26 15 n (Seq # 198000-1)]
> 12.5%

Give Fraction of binding active peptide for {Biotin-AEEA}-RSSHCRHRNCHTITRGNMRIETPNNIRKDA (cysteine pairing not given here) [synthetic biotinylated peptide pp26 5 n (Seq # 197557-2)]
> 5%

Give Fraction of binding active peptide for {Biotin-AEEA}-SGCVKKDELCSQSVPMCCEPLECKWFNENYGICGS (ends and bridges not checked, also called gurm 15n; gurmarin peptide 15) [synthetic biotinylated peptide gurmarin 15 n (Seq # 194511-1)]
> 50%
